B1: VH:VL chains; a variant is named by its letters at X, in order (parent)
chain 1: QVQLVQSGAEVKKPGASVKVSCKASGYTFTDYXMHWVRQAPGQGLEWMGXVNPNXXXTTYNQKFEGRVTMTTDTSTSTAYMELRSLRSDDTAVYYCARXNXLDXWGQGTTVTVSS
chain 2: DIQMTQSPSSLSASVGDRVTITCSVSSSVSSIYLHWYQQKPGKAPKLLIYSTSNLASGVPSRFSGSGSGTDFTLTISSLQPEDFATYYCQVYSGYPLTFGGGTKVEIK

# Variants of: B1
# experiment notes: yeast display scFab, FACS + sequencing

- change: "SKGKGSWD"
  non-specific binding call: "binds"
- change: "YRTRSSAV"
  non-specific binding call: "binds"
- change: "YRGGDYLV"
  non-specific binding call: "no binding"
- change: "YRKGSSLF"
  non-specific binding call: "binds"
- change: "VEARGDGA"
  non-specific binding call: "no binding"
- change: "FRRGGSAF"
  non-specific binding call: "binds"
- change: "VTGEDSLD"
  non-specific binding call: "no binding"
- change: "YATEDSGF"
  non-specific binding call: "no binding"
- change: "YKRRGSAA"
  non-specific binding call: "binds"
- change: "YRTAGSGV"
  non-specific binding call: "binds"
- change: "DGGTNAGD"
  non-specific binding call: "no binding"
- change: "YRRKGALV"
  non-specific binding call: "binds"
- change: "YRRRGFGS"
  non-specific binding call: "binds"
- change: "FRGGSSGV"
  non-specific binding call: "binds"
- change: "FRARGSGA"
  non-specific binding call: "binds"
- change: "DAKTDDGV"
  non-specific binding call: "no binding"
- change: "YTTGGDWA"
  non-specific binding call: "no binding"
- change: "DAGGAAGD"
  non-specific binding call: "no binding"
- change: "YRRGGAAV"
  non-specific binding call: "binds"
- change: "VEGTSAVY"
  non-specific binding call: "no binding"
- change: "YRRGGAVA"
  non-specific binding call: "binds"
- change: "YRGRDYGV"
  non-specific binding call: "binds"
- change: "VRERGSSF"
  non-specific binding call: "no binding"
- change: "FAGGDYGS"
  non-specific binding call: "binds"
- change: "AARADDGS"
  non-specific binding call: "no binding"
- change: "VTGEDSSD"
  non-specific binding call: "no binding"
- change: "FRGKGAGA"
  non-specific binding call: "binds"
- change: "YKRGGAVV"
  non-specific binding call: "binds"
- change: "VGGTGSGY"
  non-specific binding call: "no binding"
- change: "YRGGDSSY"
  non-specific binding call: "no binding"
- change: "YRRGGVGV"
  non-specific binding call: "binds"
- change: "VTGTGDAV"
  non-specific binding call: "no binding"
- change: "FRAGGSVD"
  non-specific binding call: "binds"
- change: "YRTAGSSD"
  non-specific binding call: "binds"
- change: "VKGRADVF"
  non-specific binding call: "no binding"
- change: "FRTKAAVY"
  non-specific binding call: "binds"
- change: "FRGRGSLS"
  non-specific binding call: "binds"
- change: "VKGRADLY"
  non-specific binding call: "no binding"
- change: "YRRKGSSA"
  non-specific binding call: "binds"
- change: "VRKKGVSS"
  non-specific binding call: "binds"
- change: "DREEGSSY"
  non-specific binding call: "no binding"
- change: "VKTGGDGD"
  non-specific binding call: "no binding"
- change: "SRGKSFGS"
  non-specific binding call: "binds"
- change: "DTTGSAVA"
  non-specific binding call: "no binding"
- change: "VGAEGVWS chain 1 G66S"
  non-specific binding call: "binds"
- change: "SEARSSWV"
  non-specific binding call: "no binding"
- change: "ARAGDDAV"
  non-specific binding call: "no binding"
- change: "VTGEDAVV"
  non-specific binding call: "no binding"
- change: "VTGGDSGD"
  non-specific binding call: "no binding"
- change: "YKGRGALY"
  non-specific binding call: "binds"
- change: "YRRRSSVD"
  non-specific binding call: "binds"
- change: "DRGRDDVF"
  non-specific binding call: "no binding"
- change: "VAGGDAAA"
  non-specific binding call: "no binding"
- change: "AGRGADLS"
  non-specific binding call: "no binding"
- change: "FRGKGSAD"
  non-specific binding call: "binds"
- change: "YKAKGSAV"
  non-specific binding call: "binds"
- change: "YRTGGAWD"
  non-specific binding call: "binds"
- change: "DGARNAAA"
  non-specific binding call: "no binding"
- change: "DAAKNDAV"
  non-specific binding call: "no binding"
- change: "SKTRAFVA"
  non-specific binding call: "binds"
- change: "SEGTGDWV"
  non-specific binding call: "no binding"
- change: "YTRGADWA"
  non-specific binding call: "no binding"
- change: "YKRGDASS"
  non-specific binding call: "no binding"
- change: "YRERGSSF"
  non-specific binding call: "binds"
- change: "VRGGSDVD"
  non-specific binding call: "no binding"
- change: "DAGRGAVS"
  non-specific binding call: "no binding"
- change: "AGGENDGD"
  non-specific binding call: "no binding"
- change: "AKGEDSVF"
  non-specific binding call: "no binding"
- change: "YKGRGSAF"
  non-specific binding call: "binds"
- change: "VGRATVGS"
  non-specific binding call: "binds"
- change: "VEKEGDVY"
  non-specific binding call: "no binding"
- change: "YRRRSSLA"
  non-specific binding call: "binds"
- change: "YRGAGSGY"
  non-specific binding call: "binds"
- change: "YRARSAVA"
  non-specific binding call: "binds"
- change: "FRAGGSSV"
  non-specific binding call: "binds"
- change: "FGRGGVGD"
  non-specific binding call: "binds"
- change: "DAARGDAV"
  non-specific binding call: "no binding"
- change: "YRRGSAVY"
  non-specific binding call: "binds"
- change: "YRTRDDVY"
  non-specific binding call: "no binding"
- change: "VKRRSVGA"
  non-specific binding call: "binds"
- change: "DREEGSGD"
  non-specific binding call: "no binding"
